# assayed_system: sigma receptor σ1 (Homo sapiens, UniProt Q99720)
# Sequence (Q99720 whole entry): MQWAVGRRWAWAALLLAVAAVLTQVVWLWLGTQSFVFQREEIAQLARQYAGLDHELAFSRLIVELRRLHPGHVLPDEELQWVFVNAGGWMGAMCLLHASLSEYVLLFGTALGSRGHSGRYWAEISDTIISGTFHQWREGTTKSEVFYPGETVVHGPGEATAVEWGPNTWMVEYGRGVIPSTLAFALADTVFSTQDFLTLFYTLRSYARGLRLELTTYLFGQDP
# method_summary: Off-target interaction determined by the PDSP
# Type: binding
# protocol_conditions: read-out: Off-target, receptor (h, unless noted) (Ki, μM): σ1
measured_attribute: Ki (µM)

• O[C@H]1[C@H](n2cnc3c(NC(C4CCC4)C4CCC4)ncnc32)[C@H]2C[C@@]2(CCl)[C@H]1O = 1.5
• CNC(=O)[C@@]12C[C@@H]1[C@@H](n1cnc3c(NC4CCCC4)nc(Cl)nc31)[C@H](O)[C@@H]2O [Compound 6e, reference compound] = 1.55
• O[C@@H]1[C@H](O)[C@@H](CCl)O[C@H]1n1cnc2c(NC(C3CCC3)C3CCC3)ncnc21 = 0.69
• OC[C@@]12C[C@@H]1[C@@H](n1cnc3c(NC(C4CCC4)C4CCC4)ncnc31)[C@H](O)[C@@H]2O = 1.79

* * *

# assayed_system: sigma receptor σ2 (UniProt Q5BJF2)
# method_summary: Off-target interaction determined by the PDSP
# Type: binding, human
# protocol_conditions: read-out: Off-target, receptor (h, unless noted) (Ki, μM): σ2
measured_attribute: log10 Ki (log10 of the value in µM)

* Nc1ncnc2c1ncn2[C@@H]1O[C@H](C(=O)NC2CC2)[C@@H](O)[C@H]1O [Compound 17, reference compound] | 0.64
* O[C@H]1[C@H](n2cnc3c(NC(C4CCC4)C4CCC4)ncnc32)[C@H]2C[C@@]2(CCl)[C@H]1O | 0.07
* CCSC[C@H]1O[C@@H](n2cnc3c(NC(C4CCC4)C4CCC4)ncnc32)[C@H](O)[C@@H]1O | -0.19
* COC(=O)c1ncn([C@H]2[C@H](O)[C@H](O)[C@]3(CO)C[C@H]23)n1 | 0.24
* CCOC(=O)[C@@]12C[C@@H]1[C@@H](n1cnc3c(NC(C4CCC4)C4CCC4)nc(Cl)nc31)[C@H](O)[C@@H]2O | 0.31
* O[C@H]1[C@H](n2cnc3c(NC(C4CCC4)C4CCC4)nc(Cl)nc32)[C@H]2C[C@@]2(CCl)[C@H]1O | -0.46
* OC[C@@]12C[C@@H]1[C@@H](n1cnc3c(NC(C4CCC4)C4CCC4)ncnc31)[C@H](O)[C@@H]2O | -0.12

* * *

# assayed_system: muscarinic receptor M5 (Homo sapiens, UniProt P08912)
# Sequence (P08912 whole entry): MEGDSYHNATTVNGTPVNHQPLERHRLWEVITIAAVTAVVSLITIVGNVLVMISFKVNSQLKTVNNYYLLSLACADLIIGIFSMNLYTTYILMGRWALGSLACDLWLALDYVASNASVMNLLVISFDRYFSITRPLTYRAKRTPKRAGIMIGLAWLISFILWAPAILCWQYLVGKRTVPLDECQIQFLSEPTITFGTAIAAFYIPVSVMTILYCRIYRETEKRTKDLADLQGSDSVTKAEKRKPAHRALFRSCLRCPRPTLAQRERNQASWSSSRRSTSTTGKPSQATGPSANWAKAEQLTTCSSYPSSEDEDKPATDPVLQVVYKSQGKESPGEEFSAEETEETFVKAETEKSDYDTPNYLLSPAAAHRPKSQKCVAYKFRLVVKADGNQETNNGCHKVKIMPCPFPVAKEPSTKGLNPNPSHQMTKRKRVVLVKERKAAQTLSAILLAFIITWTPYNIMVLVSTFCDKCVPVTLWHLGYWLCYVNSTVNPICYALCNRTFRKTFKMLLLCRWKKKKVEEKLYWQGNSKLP
# method_summary: Off-target interaction determined by the PDSP
# Format: binding
# protocol_conditions: read-out: Off-target, receptor (h, unless noted) (Ki, μM): M5
measured_attribute: Ki (µM)

* OC[C@@]12C[C@@H]1[C@@H](n1cnc3c(NC(C4CCC4)C4CCC4)nc(Cl)nc31)[C@H](O)[C@@H]2O [Compound 25] | 3

* * *

Reported values of log10(Ki) for individual entries
# assayed_system: hA2AAR (Homo sapiens, UniProt P29274)
# Sequence (P29274 whole entry): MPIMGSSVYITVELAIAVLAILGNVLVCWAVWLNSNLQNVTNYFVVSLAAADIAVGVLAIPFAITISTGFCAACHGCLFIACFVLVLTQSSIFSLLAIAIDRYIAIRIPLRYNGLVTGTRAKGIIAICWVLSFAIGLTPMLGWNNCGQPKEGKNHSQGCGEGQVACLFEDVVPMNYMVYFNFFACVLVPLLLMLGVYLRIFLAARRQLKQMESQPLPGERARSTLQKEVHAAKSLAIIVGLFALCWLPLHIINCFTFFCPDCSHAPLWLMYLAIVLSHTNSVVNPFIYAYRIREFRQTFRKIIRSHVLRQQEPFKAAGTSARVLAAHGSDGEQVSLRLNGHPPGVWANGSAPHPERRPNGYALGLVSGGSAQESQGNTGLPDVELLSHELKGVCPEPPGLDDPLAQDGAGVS
# method_summary: Radioligand binding in membranes of HEK293 cells expressing hA2AAR
# protocol_conditions: (h); values without % sign (Ki); read-out: A2AAR % inhibition
measured_attribute: log10(Ki) (log10 of the value in nM)

* OC[C@H]1O[C@@H](n2cnc3c(NC(C4CC4)C4CC4)ncnc32)[C@H](O)[C@@H]1O [Compound 8] | 3.17
* OC[C@H]1O[C@@H](n2cnc3c(NC(C4CCC4)C4CCC4)nc(Cl)nc32)[C@H](O)[C@@H]1O [Compound 12] | 3.41
* O[C@@H]1[C@H](O)[C@@H](CCl)O[C@H]1n1cnc2c(NC(C3CCC3)C3CCC3)ncnc21 [Compound 10] | 3.72
* CNC(=O)[C@@]12C[C@@H]1[C@@H](n1cnc3c(NC(C4CC4)C4CC4)nc(Cl)nc31)[C@H](O)[C@@H]2O [Compound 34] | 3.64
* CNC(=O)[C@@]12C[C@@H]1[C@@H](n1cnc3c(NC4CCCC4)nc(Cl)nc31)[C@H](O)[C@@H]2O [Compound 6e, reference compound] | 3.51
* Nc1nc(Cl)nc2c1ncn2[C@H]1[C@H](O)[C@H](O)[C@]2(CCl)C[C@H]12 [Compound 22] | 3.24
* O=C(NC1CC1)[C@@]12C[C@@H]1[C@@H](n1cnc3c(N[C@H]4C[C@H]5CC[C@@H]4C5)nc(Cl)nc31)[C@H](O)[C@@H]2O [Compound 36] | 2.72
* Nc1ncnc2c1ncn2[C@@H]1O[C@H](C(=O)NCCO)[C@@H](O)[C@H]1O [Compound 18, reference compound] | 2.70
* OC[C@H]1O[C@@H](n2cnc3c(NC(C4CCC4)C4CCC4)ncnc32)[C@H](O)[C@@H]1O [Compound 9] | 3.55
